Where do the numbers come from? From PubChem BioAssay (NCI).

test system: OVCAR-8 ovarian; assay: NCI tumour cell line growth inhibition, 48 h; in the data active = GI50 below about 0.43 µM; inactive = the rest
Bench note: report the call from active, inactive

COc1ccc(C(=O)c2cc(C)c(OC)c(C)c2)c(OC)c1NC(C)=O	active
COc1ccc(-c2cncn2-c2cc(OC)c(OC)c(OC)c2)cc1	inactive
COc1cccc2cc(N(C)c3nc(C)nc4c3CCC4)ccc12	active

Dear all, I need the recorded test outcome for CSc1nc2nc3c(nc2c(=O)n1C)C(=O)c1ccccc1C3=O , thank you. active

Check the results log: what was the call for C#Cc1cccc(Nc2nc(Cl)nc3cc(NC(=O)CCl)ccc23)c1 ? inactive

Hi, sorry to bother you, what did the test record for CC(=O)N1CCN(CCNC(=O)n2cc(-c3ccncc3)c(-c3cc(O)cc(Cl)c3)n2)CC1 ? inactive

// outcome(item) with item = c1ccc(OCCC[P+](c2ccccc2)(c2ccccc2)c2ccccc2)cc1 inactive

# fetch the recorded call for O=C(/C=C/C=C/c1ccccc1)c1ccco1 here inactive

What did this assay record as the result for COc1ccc(-c2nc(-c3nc4ccc(C)cc4[nH]3)cc3c2[nH]c2ccccc23)cc1 ? inactive

Call for entry CCCCCCSSC(=S)N(CC)CC : inactive

Check the results log: what was the call for COc1ccc(C(=O)/C=C/c2cc(-c3cc(OC)c(OC)c(OC)c3)n[nH]2)cc1 ? inactive

How did this test come out for O=C(NCCCc1cn[nH]c1)c1ccc(-c2ccncc2)c(C#Cc2ccc(F)cc2)c1 ? active

So what was the verdict on CCN(CC)CCCC(C)Nc1cc(-c2cccc(OC(F)(F)F)c2)nc2ccc(N3CCCC3)cc12 (stereo not drawn) in this test? active

====

test system: M14 melanoma; assay: NCI tumour cell line growth inhibition, 48 h
This section presents compounds with their documented TGI values.
Give a bare numeral; the unit µM is implied.

CC(C)(C)OC(=O)c1ccc(NCC2=C(Br)C(=O)C=CC2=O)cc1	85.4
ClCc1ccccc1Cn1cnc2ncnc(Cl)c21	5.17
Cc1c(C#N)cccc1[C@@H](C)Nc1nnc(C)c2cnc(N3CCOCC3)cc12	90.4
O=C1CSC(c2ccccc2Cl)N1c1nnc(Cn2cnnc2)o1 (centres undefined)	24.7
COc1cc(OC)cc(C2C3=C(COC3=O)Nc3cc(OC)ccc32)c1 (centres undefined)	0.0111

Please fill in: TGI reported for Cc1ccc(N=C[N-]c2ccc(C)cc2)cc1.Cc1ccc(N=C[N-]c2ccc(C)cc2)cc1.O=C([O-])C(F)(F)F.O=C([O-])C(F)(F)F.[OH3+].[OH3+].[Rh+2].[Rh+2] = 70.3

Reported TGI for CC1CCC2(OC1)OC1C(O)C3C4CCC5CC(OC6OC(CO)C(OC7OC(CO)C(O)C(OC8OCC(O)C(O)C8O)C7OC7OC(CO)C(O)C(OC8OC(CO)C(O)C(O)C8O)C7O)C(O)C6O)C(O)CC5(C)C4CCC3(C)C1C2C (centres undefined) was 24.9

Data point: O=C(OCc1ccccc1)N1CCNCCNCCN(C(=O)OCc2ccccc2)CCNCC1 ; TGI = 30.4

Measured TGI of COc1ccc(-c2nc(-c3nc4ccc(C)cc4[nH]3)cc3c2[nH]c2ccccc23)cc1 : 11.7

====

test system: KM20L2 colon; experiment: NCI tumour cell line growth inhibition, 48 h
We begin with a simple list: items and their reported TGI.

CCCCCC(=O)Nc1nc2nc[nH]c2c(=O)[nH]1	> 100 µM
N/C(=N\N=C\c1ncccc1O)NO	> 100 µM
N#Cc1ccccc1NC(=O)C(=O)C1NC(=S)NC1=O (centres undefined)	> 100 µM
O=C(NC(=O)c1c(Cl)nc2sccn12)Nc1ccc(Cl)cc1	> 100 µM

Next:
Query CC1OC(=O)C(O)=C1O (centres undefined) yields TGI of > 100 µM

====

tested on: OVCAR-8 ovarian; assay: NCI tumour cell line growth inhibition, 48 h
MEASURED_QUANTITY: TGI

COc1cc(Oc2nc3cc(F)c(F)cc3nc2-c2ccccc2)cc(OC)c1OC	> 100 µM
C=C1C(C)C2C(Cc3ccccc3)NC(=O)C23OC(=O)/C=C\CC(=O)CCC(C)C/C=C/C3C1O (centres undefined)	16.7 µM
CN1Cc2ccccc2/C=C\c2ccccc21	> 100 µM
Nc1c(S(=O)(=O)O)cc(S(=O)(=O)O)c2ccc(N=Nc3ccc(/C=C/c4ccc(N=Nc5ccc6c(S(=O)(=O)O)cc(S(=O)(=O)O)c(N)c6c5O)cc4S(=O)(=O)O)c(S(=O)(=O)O)c3)c(O)c12	> 100 µM
CCCCC#Cc1c(I)n(C)c(=O)[nH]c1=O	10.1 µM
N/C(=N\N=C\c1ncccc1O)NO	> 100 µM

TGI for O=C1NC(N2CCOCC2)=N/C1=C\c1ccc(O)cc1 is > 100 µM

For CCCCN(C)/N=N/c1nc[nH]c1C(N)=O the compound record lists TGI as > 100 µM

According to the records, this compound CCOC(=O)Nc1ccc(S(=O)(=O)Nn2cnnc2)cc1 displays TGI of > 100 µM

Entry under test: Cc1ccc([N+](=O)[O-])c2c(NCCNC(=O)c3cc(C(=O)NCCNc4ccnc5c(C)ccc([N+](=O)[O-])c45)n(C)n3)ccnc12 . Its TGI was > 100 µM

====

tested on: T-47D breast; assay: NCI tumour cell line growth inhibition, 48 h; in the data active means GI50 below about 0.43 µM; inactive means the rest
Please reply with one of these outcomes: true (1) = active, false (0) = inactive

O=C1/C(=C/c2ccc(F)cc2)CN(C(=O)CCN2CCC(=NO)CC2)C/C1=C\c1ccc(F)cc1	false (0)

Please indicate how the test categorized COc1cc(C2C3=C(COC3=O)N(CCO)c3cc4c(cc32)OCCO4)cc(OC)c1OC (stereo not given) . true (1)

In this assay, the call recorded for [N-]=[N+]=NCCCn1c2c(c3ccc([N+](=O)[O-])cc3c1=O)C(=O)c1cc(Br)ccc1-2 was what? false (0)

What outcome does the record of this test show for C=C1C(O)C2CC(C)(CO)C(=O)C2=C(CC(C)C)C12CC2 (stereo not given) ? false (0)

What did the test return for Cc1cc(C)c(C#N)c(Sc2nc(C)c([N+](=O)[O-])c(C)c2C#N)n1 ? false (0)

Would you mind telling me which call this test gave N#CC1=C(N)Oc2c(ccc3ccccc23)C1c1cc(=O)oc2ccc(Cl)cc12 (stereo not given) ? false (0)

====

test system: SF-268 CNS; assay: NCI tumour cell line growth inhibition, 48 h
The entries below come with measured TGI values attached.
Use µM as the unit, but write only the number.

COc1ccc(-c2ccc(/C=N/n3c(COc4ccccc4Cl)nn(CN4CCOCC4)c3=S)o2)c([N+](=O)[O-])c1	63.4
COC1=CC(C2c3cc4c(cc3[C@@H](Nc3ccc(F)cc3)C3COC(=O)[C@H]23)OCO4)=CC(=O)C1=O (stereo not given in full)	36.6
CCOC(=O)C(Cc1ccc(N(CCCl)CCCl)cc1)NC(=O)C(Cc1ccccc1)NC=O (stereo not given)	0.299

Now look at this entry.
Tested system SF-268 CNS; TGI recorded for CCOC(=O)CCC(C(=O)OCC)n1nnc2cc(Nc3c(C)[n+]([O-])c4cc(F)c(OCC)cc4[n+]3[O-])ccc21 (stereo not given) was 94.9

====

Reported GI50 values follow for various compounds
test system: SN12C renal; assay: NCI tumour cell line growth inhibition, 48 h

Solved entries:
COc1ccccc1C1C(C#N)=C(N)Oc2n[nH]c(C)c21 (centres undefined)	14800 nM
O=C(NCC(F)(F)F)Nc1cccc(-c2cnc3cc(-c4ccc(F)cc4)ccn23)c1	1540 nM
C#C[C@@]1(O)[C@@H](CO)O[C@@H](n2cc(I)c3c(N)ncnc32)[C@@H]1O	97.6 nM
Cn1cc(C2=C(c3c[nH]c4ccccc34)C(=O)NC2=O)c2ccccc21	1320 nM
O=C(CN(/C=C/C(=O)C(F)(F)F)c1ccc(Cl)cc1)c1ccc(Cl)c(Cl)c1	2380 nM
CCN(CC)CCCC(C)Nc1cc(-c2cccc(OC(F)(F)F)c2)nc2ccc(N3CCCC3)cc12 (centres undefined)	124 nM

Notebook: C#Cc1cccc(Nc2nc(Cl)nc3cc(NC(=O)CCl)ccc23)c1 , GI50 read as 637 nM

Reported GI50 of COc1ccc(-c2ccc(/C=N/n3c(COc4ccccc4Cl)nn(CN4CCOCC4)c3=S)o2)c([N+](=O)[O-])c1 : 32000 nM

Item: O=C(NNc1ccc(Cl)cc1)C1CCC(CNS(=O)(=O)c2ccccc2Cl)CC1 (centres undefined) | GI50: 14700 nM

====

tested on: MDA-MB-231 breast; test: NCI tumour cell line growth inhibition, 48 h
Readings of TGI for the listed compounds
Give the value in µM but do not write µM after it.

O=C(CN(/C=C/C(=O)C(F)(F)F)c1ccc(Cl)cc1)c1ccc(Cl)c(Cl)c1	20.9

The compound identified as CN=C1C=CC(=C(c2ccc(N(C)C)cc2)c2ccc(N(C)C)cc2)C=C1 registered its TGI at 0.785
